measurementNotes: PAMPA (parallel artificial membrane permeability assay)
Assay type: in vitro ADME
particulars: PAMPA; membrane permeation rate (Pe); 50 mM MOPSO buffer pH 6.5 with 5.0% glycocholic acid, 37° C., 18 hours; read-out: iPAMPA Pe
Starred links: 1 amine or outer side, 2 acyl side, 3 side chain; linkers in the order of their positions; H or OH if unused. Positions of bridges follow the written chain, without caps; N, C: chain ends. Non-standard residues stand in square brackets, D forms with d. Residues, ends and D or L forms follow the SMILES beside them. *: point of attachment. NMeF = CN[C@@H](Cc1ccccc1)C(=O)O; NMeβAla = CN(CCC(=O)[*:2])[*:1]; NMeL = CN[C@@H](CC(C)C)C(=O)O; NMeV = CN[C@H](C(=O)O)C(C)C; NMeS = CN[C@@H](CO)C(=O)O; Piperidide = C1CCN(*)CC1; β3hA = C[C@H](N)CC(=O)O; Sar = CNCC(=O)O
reportedProperty: Papp at 18 hours, 50 µM (×10⁻⁶ cm/s)
Numeric only. Scale: ×10⁻⁶ cm/s

CC[C@H](C)[C@@H]1NC(=O)CCN(C)C(=O)C[C@@H](C(=O)N2CCCCC2)NC(=O)[C@H](Cc2ccccc2)N(C)C(=O)[C@H](CC(C)C)NC(=O)[C@H](CC(C)C)N(C)C(=O)[C@H](CC(C)C)NC(=O)[C@H]([C@@H](C)O)NC(=O)[C@H](Cc2ccccc2)NC(=O)[C@H](C(C)C)N(C)C1=O [DP-425] ([NMeβAla]I[NMeV]FTL[NMeL]L[NMeF]D-Piperidide; lactam N-10) | 27
CC(C)C[C@@H]1NC(=O)[C@H](CO)N(C)C(=O)[C@H](CC(C)C)N(C)C(=O)[C@H](CC(C)C)N(C)C(=O)[C@H](CC(C)C)N(C)C(=O)[C@@H](C)NC(=O)[C@H](C)NC(=O)[C@H](CC(C)C)N(C)C(=O)C[C@H](C)NC(=O)[C@H](CC(C)C)N(C)C(=O)CN(C)C1=O [DP-649] (cyclo(A[dA][NMeL][NMeL][NMeL][NMeS]L[Sar][NMeL][β3hA][NMeL])) | 22

Okay, next one:
INPUT: Would you mind telling me what Papp at 18 hours, 50 µM value was observed for CC(C)C[C@H]1C(=O)N(C)[C@@H](C(C)C)C(=O)N[C@@H](C(C)C)C(=O)N[C@H](C(=O)N(C)[C@@H](Cc2ccccc2)C(=O)N[C@@H](C)C(=O)N2CCCCC2)CC(=O)N[C@@H](C)C(=O)N[C@@H](Cc2ccccc2)C(=O)N(C)[C@@H](CC(C)C)C(=O)N[C@@H]([C@@H](C)O)C(=O)N(C)[C@@H](Cc2ccccc2)C(=O)NCC(=O)N1C [DP-187] (AF[NMeL]T[NMeF]G[NMeL][NMeV]VD[NMeF]A-Piperidide; lactam N-10) ?
OUTPUT: 43

###

measurementNotes: Metabolic stability in human hepatic microsome
Format: in vitro ADME
particulars: microsomes, pH 7.4; human hepatic microsome, NADPH(+); read-out: CL NADPH(+)
Starred links: 1 amine or outer side, 2 acyl side, 3 side chain; linkers in the order of their positions; H or OH if unused. Positions of bridges follow the written chain, without caps; N, C: chain ends. Non-standard residues stand in square brackets, D forms with d. Residues, ends and D or L forms follow the SMILES beside them. *: point of attachment. Phe(4-(CH2)5CO) = O=C([C@H](Cc1ccc(CCCCCC(=O)[*:3])cc1)N[*:1])[*:2]; hhPhe = N[C@@H](CCCc1ccccc1)C(=O)O; NMeF = CN[C@@H](Cc1ccccc1)C(=O)O; NMeI = CC[C@H](C)[C@H](NC)C(=O)O; NMeL = CN[C@@H](CC(C)C)C(=O)O; NMeV = CN[C@H](C(=O)O)C(C)C; NMeA = CN[C@@H](C)C(=O)O; Piperidide = C1CCN(*)CC1; Sar = CNCC(=O)O
Listed here: items and their measured microsomal CLint at 1 uM.
Numbers only; they are read as µL/min/mg.

Consider the reported microsomal CLint at 1 uM for these compounds:
CC(C)C[C@@H]1NC(=O)[C@H](C(C)C)N(C)C(=O)[C@H](CCCc2ccccc2)NC(=O)CN(C)C(=O)[C@H]([C@@H](C)O)NC(=O)[C@H](C)N(C)C(=O)[C@H](CC(C)C)N(C)C(=O)[C@@H](C(C)C)NC(=O)C[C@@H](C(=O)N2CCCCC2)NC(=O)[C@H](C)NC(=O)[C@H](CC(C)C)N(C)C1=O [DP-737] ([dV][NMeL][NMeA]T[Sar][hhPhe][NMeV]L[NMeL]AD-Piperidide; lactam N-11) | 45
CC[C@H](C)[C@H]1C(=O)N[C@H](C(=O)N2CCCCC2)Cc2ccc(cc2)CCCCCC(=O)N[C@@H](CC(C)C)C(=O)N2CCC[C@H]2C(=O)N(C)[C@@H](C(C)C)C(=O)N[C@@H](Cc2ccccc2)C(=O)N(C)[C@@H](Cc2ccccc2)C(=O)N(C)[C@@H](CC(C)C)C(=O)N[C@@H](C)C(=O)N1C [DP-871] (LP[NMeV]F[NMeF][NMeL]A[NMeI][Phe(4-(CH2)5CO)]-Piperidide; lactam N-9) | 389

INPUT: Recorded microsomal CLint at 1 uM of CC(C)C[C@H]1C(=O)N(C)[C@@H](C)C(=O)N(C)[C@@H](CC(C)C)C(=O)N[C@H](C(=O)N2CCCCC2)CC(=O)N(C)[C@@H](C)C(=O)N(C)[C@@H](Cc2ccccc2)C(=O)N[C@@H]([C@@H](C)O)C(=O)N(C)[C@@H](C)C(=O)N(C)[C@@H](CC(C)C)C(=O)NCC(=O)N1C [DP-489] ([NMeA][NMeF]T[NMeA][NMeL]G[NMeL][NMeA][NMeL]D-Piperidide; lactam N-10) , please.
OUTPUT: 59
